TESTED_ON: T1, human TROP2-his protein (human, UniProt P09758 27-274)
T1 construct: Biotin-labelled in the ELISAs, unlabelled analyte in Biacore; also called biotin-labeled human TROP2-his protein; biotin human Trop2-his
T1 sequence: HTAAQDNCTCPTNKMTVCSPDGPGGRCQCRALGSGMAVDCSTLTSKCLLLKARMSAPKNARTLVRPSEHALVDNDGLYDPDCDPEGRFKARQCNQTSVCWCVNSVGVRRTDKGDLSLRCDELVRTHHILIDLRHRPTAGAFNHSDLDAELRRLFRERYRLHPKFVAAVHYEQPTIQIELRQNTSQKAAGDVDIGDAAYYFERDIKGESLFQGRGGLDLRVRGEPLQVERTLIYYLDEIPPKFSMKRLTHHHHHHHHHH
ASSAY_DETAILS: SPR Biacore T200, mAb captured on anti-mouse IgG CM5 chip, TROP2-his analyte
Experimental: Un-reacted moieties on the chip (biosensor) surface were blocked with ethanolamine. […] The antigen-antibody association kinetics was followed for 2 minutes and the dissociation kinetics was followed for 10 minutes. The association and dissociation curves were fit to a 1:1 Langmuir binding model using BIAcore evaluation software.
Field: Kd. Provide a value for each of the binders that follow.
Report the value in nM with no unit label.

Just so you know, measured Kd for mouse antibody A1E11A12D1 (antibody, V domains shown, Mouse monoclonal IgG purified from hybridoma supernatant) VH: QVQLQQSGAELARPGASVKLSCMASGYTFTTYGISWVRQRTGQGLEWIGQIYPGSDYSYCDEDFKGKATLTADKSSSTAYMQLSSLTSEDSAVYFCARASYFDYWGQGTTLTVSS VL: DILLTQSPAILSVSPGERVSFSCRASQTIGTAIHWYQQRANGSPRLLIKYASESISGIPSRFSGSGSGTDFALSINTVESEDFAYYYCQQSNNWPFTFGGGTKLEIR came out at 0.154

Just so you know, measured Kd for mouse antibody A1B12D2B4E7B3 (antibody, V domains shown, Mouse monoclonal IgG purified from hybridoma supernatant) VH: EVQLQQSGPELVKPGASVKMSCKASGFTFTDYYMNWVKQSHGKSLEWIGYIYPNHGGTGYNQKFKDKATLTVDKSSSTAYMELRSLTSDDSAVYYCARENYGYAMDYWGQGTSVTVSS VL: DVVMTQTPLSLPVSLGDQASISCRSSQSLVHGDGNTYLHWFLQKPGQSPKLLIYTVSNRFSGVPDRFSGSGSGTDFTLKINRVEAEDLGIYFCSQTTHVPTFGGGTKLEIK came out at 1.06

Just so you know, measured Kd for mouse antibody C1B3B12D2 (antibody, V domains shown, Mouse monoclonal IgG purified from hybridoma supernatant) VH: QVQLQQSGPELVRPGTSVKMSCKAAGYTFTKFWIGWVKQRPGHGLEWIGNIYPGGAYINYNENFKGKATLTADTFSSTAYMQLNSLTSADSAIYYCAREGSSGYWGQGTTLTVSS VL: DIVMTQSPSSLTVTAGEKVTLSCKCSQSLLNSGTQENYLTWYQQKPGQPPKMLIYWASIREPGVPDRFTGSGSGTDFTLTINNVQAEDLAVYYCQHDYSYPFTFGSGTKLEIK came out at 0.00136

Just so you know, measured Kd for mouse antibody A1H3C5H8E12 (antibody, V domains shown, Mouse monoclonal IgG purified from hybridoma supernatant) VH: QVQLQQSGAELVRPGTSVKMSCKAAGYTFTNYWIDWVKQRPGHGLEWIGNIFPGGFYTNYNEKFKGKATLTADTSSSTAYMQLSSLTSEDSAIYYCARGGVFDYWGQGTTLTVSS VL: DILLTQSPAILSVSPGERVSFSCRASQSIGTSIHWYQQRTNGSPRLLIKYASESISGIPSRFSGSGSGTDFTLSINSVESEDIADYYCQQSNSWPYTFGGGTKLEIK came out at 1.81

Just so you know, measured Kd for mouse antibody B1G1F5A3 (antibody, V domains shown, Mouse monoclonal IgG purified from hybridoma supernatant) VH: EVQLQQSGPELVKPGTSVKMSCKASGYSFADYSMNWVRQSHGNSLEWIGYIYPNNGASGFNQKFKGKATLTVDKSSSTAYMELHSLTSEDSAVYYCAREQDNSGYCFDYWGQGTSLTVSS VL: DVVMTQTPLSLAVRLGDQASISCRSSLNLVHSNGNTFLHWYLQRPGQSPKLLIYKVSNRFSGVSDRFSGSGSGTDFTLKISRVEAEDLGVYFCSQTTHVPTFGGGTKLEIK came out at 0.416
